- Target or system: human 5-HT2A (Homo sapiens (Human))
- Test summary: cell-based
- Assay type: cell-based
- Condition parameters: agonist potency, n = 3-4; read-out: 5-HT2A [pEC50 ± S.E.M.] (converted)
Where a name gives a salt, the structure may show the parent alone.
Attribute measured: EC50 (nM)
Numeric answer only, unit nM assumed.

- Compound: "CCSc1cc([C@H]2CCCNC2)c(OC)cc1C(F)(F)F.Cl [Compound 46, hydrochloride]"
  Endpoint value: 145
- Compound: "COc1cc(C2CNC2)c(OC)cc1Br.Cl [Compound 1, hydrochloride]"
  Endpoint value: 1.58
- Compound: "CCc1cc(OC)c([C@@H]2CCCNC2)cc1OC.Cl [Compound 32, hydrochloride]"
  Endpoint value: 40.7
- Compound: "COc1cc([C@H]2CCCNC2)c(OC)cc1C [Compound 23, hydrochloride]"
  Endpoint value: 263
- Compound: "COc1cc([C@H]2CCCNC2)c(OC)cc1SC [Compound 17, hydrochloride]"
  Endpoint value: 178

Problem: Given the entry COc1cc([C@@H]2CCCNC2)c(OC)cc1SC.Cl [Compound 18, hydrochloride] , report its measured EC50.
Solution: 25.7

Problem: Look up EC50: CCSc1cc(OC)c([C@H]2CCCNC2)cc1OC [Compound 27, hydrochloride]
Solution: 186

Problem: # EC50 lookup, item CCOc1cc(C(F)(F)F)c(OC)cc1[C@@H]1CCCNC1.Cl [Compound 30, hydrochloride]
Solution: 38

Problem: State the recorded EC50 for this entry: COc1cc(C(F)(F)F)c(OC)cc1C1CNC1.Cl [Compound 2, Hydrochloride]
Solution: 1

Problem: Using the record for CCOc1cc([C@@H]2CCCNC2)c(OC)cc1C(F)(F)F.Cl [Compound 20, hydrochloride] , report its EC50.
Solution: 10.2

Problem: Which value of EC50 has been reported for CCOc1cc([C@@H]2CCCNC2)c(OC)cc1CC.Cl [Compound 34, hydrochloride] in the records?
Solution: 51.3

Problem: # lookup: EC50 of CCCCc1cc(OC)c([C@H]2CCCNC2)cc1OC [Compound 56, hydrochloride]
Solution: 347

Problem: # query: EC50 of entry COc1cc([C@@H]2CCCNC2)c(OC)cc1I [Compound 14]
Solution: 37.2

src = patent US11642336B2
